List of koff values.
# Tested target: T1, Extracellular domain of cyno PD1 (cPD1-ECD) (Macaca fascicularis (cynomolgus))
# T1 construct: Expressed with a hexahistidine tag or as Fc fusion; also called cynoPD1-ECD; cynoPD-1-ECD
# T1 chain: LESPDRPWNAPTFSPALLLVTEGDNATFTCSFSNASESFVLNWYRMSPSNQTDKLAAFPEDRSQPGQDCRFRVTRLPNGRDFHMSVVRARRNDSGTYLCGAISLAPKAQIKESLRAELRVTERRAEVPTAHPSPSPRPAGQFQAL
# Procedure text: SPR ProteOn, cynoPD1-ECD; RANGE high replicate; RANGE high replicate
Provide a numeric answer, followed by its unit.

PD1B184 (antibody, human IgG2, kappa, V domains shown, IgG2sigma/kappa; VH 43, VL 50; also called PD1H3/PD1L128) VH: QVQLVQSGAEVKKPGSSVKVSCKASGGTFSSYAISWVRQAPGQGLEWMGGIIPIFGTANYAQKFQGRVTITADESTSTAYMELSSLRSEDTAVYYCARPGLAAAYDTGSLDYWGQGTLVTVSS VL: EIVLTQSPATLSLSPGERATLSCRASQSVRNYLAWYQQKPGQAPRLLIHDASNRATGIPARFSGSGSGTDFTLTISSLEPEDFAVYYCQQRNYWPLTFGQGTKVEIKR: 0.00292 s⁻¹

**Query** Answer with reported koff of PD1B162 (antibody, human IgG2, kappa, V domains shown, IgG2sigma/kappa; VH 42, VL 52; also called PD1H131/PD1L67) VH: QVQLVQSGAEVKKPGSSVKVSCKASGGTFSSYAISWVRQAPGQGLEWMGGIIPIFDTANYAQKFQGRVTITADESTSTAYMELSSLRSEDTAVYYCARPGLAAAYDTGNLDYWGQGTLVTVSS VL: EIVLTQSPATLSLSPGERATLSCRASQSVDSYLAWYQQKPGQAPRLLIYDASNRATGIPARFSGSGSGTDFTLTISSLEPEDFAVYYCQQREYWPLTFGQGTKVEIKR
**Result** 0.000998 s⁻¹

**Query** Answer with reported koff of PD1B164 (antibody, human IgG2, kappa, V domains shown, IgG2sigma/kappa; VH 42, VL 53; also called PD1H131/PD1L71) VH: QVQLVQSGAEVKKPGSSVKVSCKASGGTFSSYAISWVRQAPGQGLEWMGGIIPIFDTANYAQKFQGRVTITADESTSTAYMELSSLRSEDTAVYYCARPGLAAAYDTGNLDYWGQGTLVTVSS VL: EIVLTQSPATLSLSPGERATLSCRASQSVRSYLAWYQQKPGQAPRLLIYDASYRATGIPARFSGSGSGTDFTLTISSLEPEDFAVYYCQQRDYWPLTFGQGTKVEIKR
**Result** 0.000291 s⁻¹

The measurements presented in this section are drawn from patent US20210277110A1.
